Taken from patent US20160264649A1.

Some binders, each annotated with its measured IC50.
Tested system: HIV-1 Env of pseudovirus isolate MGRM-G-009 (subtype G) (HIV-1)
Assay summary: cell-based or functional assay

# Binder, IC50
data = [
    ("PGT-125 (antibody, V domains shown) VH: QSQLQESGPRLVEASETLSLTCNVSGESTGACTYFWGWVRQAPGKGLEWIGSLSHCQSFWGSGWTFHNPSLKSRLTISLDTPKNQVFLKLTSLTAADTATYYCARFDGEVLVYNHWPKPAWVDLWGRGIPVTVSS VL: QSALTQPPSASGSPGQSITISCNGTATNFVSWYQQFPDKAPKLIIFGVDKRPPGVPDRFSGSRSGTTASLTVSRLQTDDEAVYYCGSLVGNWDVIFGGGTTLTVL", "> 50 µg/mL"),
    ("PGT-136 (antibody, V domains shown) VH: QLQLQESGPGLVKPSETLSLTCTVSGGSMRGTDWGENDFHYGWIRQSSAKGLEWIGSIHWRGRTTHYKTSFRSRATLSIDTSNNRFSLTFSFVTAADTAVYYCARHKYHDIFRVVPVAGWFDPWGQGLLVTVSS VL: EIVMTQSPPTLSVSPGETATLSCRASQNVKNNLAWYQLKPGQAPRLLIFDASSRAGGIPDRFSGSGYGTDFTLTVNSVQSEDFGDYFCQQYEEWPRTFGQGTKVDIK", "> 50 µg/mL"),
    ("PGT-128 (antibody, V domains shown) VH: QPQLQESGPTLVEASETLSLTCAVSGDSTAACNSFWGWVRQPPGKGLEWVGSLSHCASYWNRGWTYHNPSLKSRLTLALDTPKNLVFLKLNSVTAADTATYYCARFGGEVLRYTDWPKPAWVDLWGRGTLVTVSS VL: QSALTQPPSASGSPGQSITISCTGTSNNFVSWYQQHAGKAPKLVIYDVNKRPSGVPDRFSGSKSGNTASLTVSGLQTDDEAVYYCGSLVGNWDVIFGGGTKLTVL", "> 50 µg/mL"),
]
